Hello, the source for this data is the supplement of paper PMC10567573, in case you need it.

B1: MMP1 (parent)
chain: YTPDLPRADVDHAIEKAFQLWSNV

variants of: B1; experiment: protein stability index of a GFP-peptide fusion (GPS, HEK-293T) (PSI 1-6); higher = more stable; conditions: c terminus: a fixed tail appended;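 further: lentivirally expressed fusions sorted by FACS into six bins by GFP to DsRed ratio, PSI derived from sequencing read proportions per bin multiplied by bin number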

{"mutant.code": "A13M", "protein stability index": 2.61}
{"mutant.code": "T2M", "protein stability index": 2.35}
{"mutant.code": "F18C", "protein stability index": 1.69}
{"mutant.code": "L5A", "protein stability index": 2.11}
{"mutant.code": "W21G", "protein stability index": 3.01}
{"mutant.code": "E15G", "protein stability index": 2.54}
{"mutant.code": "E15T", "protein stability index": 2.46}
{"mutant.code": "P3L", "protein stability index": 1.62}
{"mutant.code": "K16D", "protein stability index": 1.71}
{"mutant.code": "D11Y", "protein stability index": 1.7}
{"mutant.code": "L20P", "protein stability index": 1.88}
{"mutant.code": "D9S", "protein stability index": 2.55}
{"mutant.code": "D9H", "protein stability index": 2.51}
{"mutant.code": "D11T", "protein stability index": 2.62}
{"mutant.code": "I14G", "protein stability index": 2.25}
{"mutant.code": "D9F", "protein stability index": 1.57}
{"mutant.code": "S22P", "protein stability index": 1.85}
{"mutant.code": "L20E", "protein stability index": 3.55}
{"mutant.code": "V10Y", "protein stability index": 2.71}
{"mutant.code": "A17F", "protein stability index": 1.97}
{"mutant.code": "P3R", "protein stability index": 2.49}
{"mutant.code": "P6S", "protein stability index": 2.55}
{"mutant.code": "I14A", "protein stability index": 1.68}
{"mutant.code": "D4A", "protein stability index": 1.75}
{"mutant.code": "Y1V", "protein stability index": 3.19}
